AUC(0-t) for assorted molecules
- assay_text: Pharmacokinetics of absorbed components of IPE in plasma
- Type: in vivo, SD rats
- condition_description: male, SD, rat, plasma, po, 13.5 g/kg, WCM + IPE group; component of orally given IPE; n = 6
- Description: (Haodan Science and Technology Park, No.99 Changchong Road, Longping High-tech Park, Furong District, Changsha City, China), Animal License No. SCXK (Hunan) 2019-0004. The animal experiments were approved by the Animal Ethics Committee of Guangxi University of Chinese Medicine (Approval No. DW20220220-117). […]
metric_name: AUC(0-t) (ng·h/mL)

1) O=C(O)/C=C/c1ccc(O)c(O)c1 : 1130
2) O=C(O)c1ccc(O)c(O)c1 : 194
3) COc1cc(/C=C/C(=O)O)ccc1O : 34.9

----------
- assay_text: Pharmacokinetics of absorbed components of IPE in plasma
- Format: in vivo, SD rats
- condition_description: male, SD, rat, plasma, po, 13.5 g/kg, WCM + IPE group; component of orally given IPE; n = 6; read-out: MRT0~t
Measured MRT last, listed per entry.
metric_name: MRT last

1) O=C(O)c1ccc(O)c(O)c1 : 1.59 h
2) COc1cc(/C=C/C(=O)O)ccc1O : 1.05 h
3) O=C(O)/C=C/c1ccc(O)c(O)c1 : 3.32 h

----------
- assay_text: Pharmacokinetics of absorbed components of IPE in plasma
- Type: in vivo, SD rats
- condition_description: male, SD, rat, plasma, po, 13.5 g/kg, WCM + IPE group; component of orally given IPE; n = 6
Items are presented alongside their recorded Cmax.
metric_name: Cmax (ng/mL)

1) COc1cc(/C=C/C(=O)O)ccc1O : 26.1
2) O=C(O)/C=C/c1ccc(O)c(O)c1 : 342
3) O=C(O)c1ccc(O)c(O)c1 : 121

----------
- assay_text: Pharmacokinetics of absorbed components of IPE in plasma
- Format: in vivo, SD rats
- condition_description: male, SD, rat, plasma, po, 13.5 g/kg, WHM + IPE group; component of orally given IPE; n = 6; read-out: Tmax
metric_name: Tmax (min)

1) O=C(O)c1ccc(O)c(O)c1 : 37.2
2) COc1cc(/C=C/C(=O)O)ccc1O : 42
3) O=C(O)/C=C/c1ccc(O)c(O)c1 : 55.8

----------
- assay_text: Pharmacokinetics of absorbed components of IPE in plasma
- Format: in vivo, SD rats
- condition_description: male, SD, rat, plasma, po, 13.5 g/kg, WHM + IPE group; component of orally given IPE; n = 6
metric_name: Cmax

1. O=C(O)c1ccc(O)c(O)c1 [Protocatechuic acid] : 145 ng/mL
2. COc1cc(/C=C/C(=O)O)ccc1O [Ferulic acid] : 38.8 ng/mL
3. O=C(O)/C=C/c1ccc(O)c(O)c1 [Caffeic acid] : 709 ng/mL

----------
Entries and their measured Cmax follow.
- assay_text: Pharmacokinetics of absorbed components of IPE in plasma
- Type: in vivo, SD rats
- condition_description: male, SD, rat, plasma, po, 13.5 g/kg, Con + IPE group; component of orally given IPE; n = 6
metric_name: Cmax (ng/mL)

1) O=C(O)/C=C/c1ccc(O)c(O)c1 [Caffeic acid] : 703
2) O=C(O)c1ccc(O)c(O)c1 [Protocatechuic acid] : 269
3) COc1cc(/C=C/C(=O)O)ccc1O [Ferulic acid] : 35.8

----------
Reported values of AUC(0-t) for individual entries
- assay_text: Pharmacokinetics of absorbed components of IPE in plasma
- Assay type: in vivo, SD rats
- condition_description: male, SD, rat, plasma, po, 13.5 g/kg, Con + IPE group; component of orally given IPE; n = 6
- Description: (Haodan Science and Technology Park, No.99 Changchong Road, Longping High-tech Park, Furong District, Changsha City, China), Animal License No. SCXK (Hunan) 2019-0004. The animal experiments were approved by the Animal Ethics Committee of Guangxi University of Chinese Medicine (Approval No. DW20220220-117). […]
metric_name: AUC(0-t)

1) O=C(O)/C=C/c1ccc(O)c(O)c1 [Caffeic acid] : 2080 ng·h/mL
2) O=C(O)c1ccc(O)c(O)c1 [Protocatechuic acid] : 504 ng·h/mL
3) COc1cc(/C=C/C(=O)O)ccc1O [Ferulic acid] : 60.6 ng·h/mL

----------
- assay_text: Identification and relative content of absorbed components of IPE in plasma (UPLC-MS)
- Format: in vivo, SD rats
- condition_description: Con + IPE group (normal rats), oral IPE 13.5 g/kg; peak area normalization
Class Fulfilled: Relative Content of absorbed component in plasma at least 6%. Class Not fulfilled: Relative Content of absorbed component in plasma below 6%.

1. O=C(O)c1ccc(O)c(O)c1 : Not fulfilled
2. O=c1ccc2cc(O)c(O)cc2o1 : Not fulfilled
3. O=C(O)c1ccc(O)cc1 [p-Hydroxybenzoic acid] : Fulfilled
4. COc1cc(/C=C/C(=O)O)ccc1O : Fulfilled
5. O=C(O)/C=C/c1ccc(O)c(O)c1 : Fulfilled
6. COc1cc2oc(=O)ccc2cc1O : Not fulfilled
7. COC(=O)/C=C/c1ccc(O)c(O)c1 [Methyl caffeate acid] : Not fulfilled

----------
Listed here are compounds together with their documented half-life.
- assay_text: Pharmacokinetics of absorbed components of IPE in plasma
- Type: in vivo, SD rats
- condition_description: male, SD, rat, plasma, po, 13.5 g/kg, Con + IPE group; component of orally given IPE; n = 6
metric_name: half-life (h)

1. COc1cc(/C=C/C(=O)O)ccc1O : 1.51
2. O=C(O)/C=C/c1ccc(O)c(O)c1 : 4.51
3. O=C(O)c1ccc(O)c(O)c1 : 1.93

----------
- assay_text: Identification and relative content of absorbed components of IPE in plasma (UPLC-MS)
- Format: in vivo, SD rats
- condition_description: WCM + IPE group, oral IPE 13.5 g/kg; peak area normalization
Overview of reported Relative Content of absorbed component in plasma across a group of compounds:
metric_name: Relative Content of absorbed component in plasma (%)

1) COc1cc2ccc(=O)oc2cc1O : 4.71
2) COc1cc(/C=C/C(=O)O)ccc1O : 20.09
3) O=C(O)c1ccc(O)cc1 [p-Hydroxybenzoic acid] : 29.65
4) O=C(O)/C=C/c1ccc(O)c(O)c1 : 30.2
5) COC(=O)/C=C/c1ccc(O)c(O)c1 [Methyl caffeate acid] : 2.45
6) COc1cc2oc(=O)ccc2cc1O : 7.8
7) O=c1ccc2ccccc2o1 : 1.77
8) O=C(O)c1ccc(O)c(O)c1 : 1.14
9) O=c1ccc2cc(O)c(O)cc2o1 : 0.5
10) O=Cc1ccc(O)c(O)c1 : 1.68

----------
- assay_text: Identification and relative content of absorbed components of IPE in plasma (UPLC-MS)
- Type: in vivo, SD rats
- condition_description: WHM + IPE group, oral IPE 13.5 g/kg; peak area normalization
Here the recorded Relative Content of absorbed component in plasma is given for each entry.
metric_name: Relative Content of absorbed component in plasma (%)

1) COc1cc(/C=C/C(=O)O)ccc1O : 17.71
2) COC(=O)/C=C/c1ccc(O)c(O)c1 [Methyl caffeate acid] : 2.02
3) COc1cc2ccc(=O)oc2cc1O : 5.56
4) COc1cc2oc(=O)ccc2cc1O : 5
5) O=C(O)c1ccc(O)c(O)c1 : 0.84
6) O=C(O)/C=C/c1ccc(O)c(O)c1 : 34.24
7) O=C(O)c1ccc(O)cc1 [p-Hydroxybenzoic acid] : 34.04
8) O=c1ccc2cc(O)c(O)cc2o1 : 0.58

----------
Listing of recorded AUC(0-t) by entry.
- assay_text: Pharmacokinetics of absorbed components of IPE in plasma
- Type: in vivo, SD rats
- condition_description: male, SD, rat, plasma, po, 13.5 g/kg, WHM + IPE group; component of orally given IPE; n = 6
metric_name: AUC(0-t) (ng·h/mL)

1. O=C(O)c1ccc(O)c(O)c1 : 307
2. O=C(O)/C=C/c1ccc(O)c(O)c1 : 2300
3. COc1cc(/C=C/C(=O)O)ccc1O : 104

----------
- assay_text: Pharmacokinetics of absorbed components of IPE in plasma
- Format: in vivo, SD rats
- condition_description: male, SD, rat, plasma, po, 13.5 g/kg, WHM + IPE group; component of orally given IPE; n = 6
metric_name: half-life (h)

1. COc1cc(/C=C/C(=O)O)ccc1O [Ferulic acid] : 1.31
2. O=C(O)/C=C/c1ccc(O)c(O)c1 [Caffeic acid] : 3.82
3. O=C(O)c1ccc(O)c(O)c1 [Protocatechuic acid] : 1.25

Value source: paper PMC11944037
